Test system: MDA-MB-231 cells
PROCEDURE DETAILS: Apoptosis, caspase3/7 activation, ApoLive Glo Multiplex Assay
Assay type: cell-based
TEST PARAMETERS: 24 hr, caspase3/7 luminescence
QUANTITY: induction of apoptosis in MDA-MB-231 cells

- SMILES RECORD: "COc1cccc(-c2ccc(=O)n(CCCC(=O)Nc3nnc(C)s3)n2)c1"
  VALUE MEASURED: "did not induce apoptosis"
- SMILES RECORD: "O=C(O)CNC(=O)CCn1ccc2ccc(Cl)cc21"
  VALUE MEASURED: "did not induce apoptosis"
- SMILES RECORD: "O=C(O)c1csc(S(=O)(=O)Nc2cccc3c2CCCC3)c1"
  VALUE MEASURED: "did not induce apoptosis"
- SMILES RECORD: "O=C(O)c1ccc(OCc2ccc3nsnc3c2)cc1"
  VALUE MEASURED: "did not induce apoptosis"
